Where do the numbers come from? From the supplement of paper PMC9694430.

System: LOC_OS01G10900-cb004
Experiment: thermal shift delta Tm vs DMSO control; higher = stronger stabilization (binding);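 further: purified Escherichia coli-expressed rice kinase domain construct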
Conditions: 12.5 µM; protein concentration 2 µM
Reported values of thermal shift delta Tm for individual entries
The figure you give is taken to be in °C; do not add the unit.

| itemSmiles | thermal shift delta Tm [°C] |
| --- | --- |
| Cc1cc(NC(=O)c2cccc(NC(=O)/C=C/CN(C)C)c2)ccc1Nc1nccc(-c2cccnc2)n1 | 4.22 |
| O=c1[nH]nc(Sc2ncc([N+](=O)[O-])s2)n1-c1ccc2c(c1)OCCO2 | 8.23 |
| CCN1CCN(Cc2ccc(Nc3ncc(F)c(-c4cc(F)c5nc(C)n(C(C)C)c5c4)n3)nc2)CC1 | 4.97 |

Continue with the compound presented below.
q: Tell me the measured thermal shift delta Tm of CC[C@@H](N)CNc1ccnc(-c2cc(-c3cnn(C)c3)ccc2O)n1 , please.
a: 0.85

* * *

Tested on: LOC_OS01G21960-cb002
Assay: thermal shift delta Tm vs DMSO control; higher = stronger stabilization (binding)
Settings: 12.5 µM; protein concentration 2 µM
// thermal shift delta Tm lookup, one value per entry
Lab book: enter the figure in °C, no units written.

Observe how each entry below is paired with its result.
| compound | measured |
| --- | --- |
| O=C1NCCc2[nH]c(-c3ccncc3)cc21 | 2.12 |
| Cc1nc(NC(=O)N2CCC[C@H]2C(N)=O)sc1-c1ccnc(C(C)(C)C(F)(F)F)c1 [Alpelisib (BYL719)] | 0.02 |
| Cn1sc(=O)n(Cc2ccccc2)c1=O | 1.01 |
| O=C(Nc1ccccc1C(=O)NC1CCCCNC1=O)c1cc2ccccc2s1 (configuration not stated) | 0.32 |
| O=c1ccc2ccc(O)c(O)c2o1 [Daphnetin] | 1.18 |

q: // returns reported thermal shift delta Tm for input COc1ccc([C@@H]2OC[C@H]3[C@@H]2CO[C@@H]3c2ccc(O[C@@H]3O[C@H](CO)[C@@H](O)[C@H](O)[C@H]3O)c(OC)c2)cc1OC [Forsythin]
a: 0.16

q: What value of measured thermal shift delta Tm is listed for O=c1cc(N2CCOCC2)oc2c(-c3ccccc3)cccc12 ?
a: 0.79

* * *

Tested on: LOC_OS01G67340-cb003
Test: thermal shift delta Tm vs DMSO control; higher = stronger stabilization (binding)
Conditions: 12.5 µM; protein concentration 2 µM
Where a name gives a salt, the structure may show the parent alone.
Each entry below lists one item and its recorded thermal shift delta Tm value.
Answer format: numeric, °C implied, no suffix.

Illustrative cases are given below, each with its answer.
| molecule | measured |
| --- | --- |
| COC(=O)N[C@@H](C)CNc1nccc(-c2cn(C(C)C)nc2-c2cc(Cl)cc(NS(C)(=O)=O)c2F)n1 | 0.27 |
| CCS(=O)(=O)N1CC(CC#N)(n2cc(-c3ncnc4[nH]ccc34)cn2)C1 | 0.81 |
| NC(=O)c1ccc2nc(-c3ccc(Oc4ccc(Cl)cc4)cc3)[nH]c2c1 | 1.05 |
| COc1ccc2c(Oc3ccc(NC(=O)c4c(C)n(CC(C)(C)O)n(-c5ccccc5)c4=O)nc3)ccnc2c1 | 0.79 |
| Oc1c(F)cc(-c2cnccc2-c2ccc(N3CCOCC3)cc2)cc1F | 0.1 |

q: thermal shift delta Tm of O=C1NC(=O)/C(=C/c2ccc3c(c2)OC(F)(F)O3)S1 on LOC_OS01G67340-cb003?
a: 0.47

q: # returns recorded thermal shift delta Tm (system: LOC_OS01G67340-cb003) for CCN(C)S(=O)(=O)Nc1ccc(F)c(C(=O)c2c[nH]c3ncc(-c4cnc(C5CC5)nc4)cc23)c1F
a: 0.55

q: Hi! What's the reported thermal shift delta Tm for Cc1ccccc1-n1c(Cn2nc(-c3cccc(O)c3)c3c(N)ncnc32)nc2cccc(C)c2c1=O on LOC_OS01G67340-cb003?
a: 0.86

q: Identify the measured thermal shift delta Tm of C[C@@H](N)c1ccc(C(=O)Nc2ccnc3[nH]ccc23)cc1 for LOC_OS01G67340-cb003.
a: 0.47

q: What is its thermal shift delta Tm for LOC_OS01G67340-cb003? Entry: CCCS(=O)(=O)Nc1ccc(F)c(C(=O)c2c[nH]c3ncc(-c4ccc(Cl)cc4)cc23)c1F
a: 3.46

q: Give the reported thermal shift delta Tm for N=C(N)NC(=N)NCCc1ccccc1 [Phenformin HCl] (system: LOC_OS01G67340-cb003).
a: -0.23

q: Test system LOC_OS01G67340-cb003; read-out thermal shift delta Tm; what value for CCc1cnn2c(NCc3ccc[n+]([O-])c3)cc(N3CCCC[C@H]3CCO)nc12 ?
a: -0.24
